Data origin, for the record: BindingDB's records for doi:10.1021/jm00147a033

protocolText: Compound was evaluated for reversible inhibition of hydrolysis acetylcholine by acetylcholinesterase and represented as KI(competitive)
pKi: −log10 of the molar value.
measuredQuantity: pKi

INSERT INTO measurements (molecule, measuredquantity, assayresult) VALUES
  ('C[S+](C)C [Trimethyl-sulfonium; iodide]', 'pKi', 2.70),
  ('CS(=O)(=O)CCO', 'pKi', 2.06),
  ('C[Si](C)(C)CCO', 'pKi', 2.48);

###

protocolText: Compound was evaluated for reversible inhibition of hydrolysis acetylcholine by acetylcholinesterase and represented as KI(competitive)
pKi: −log10 of the molar value.
measuredQuantity: pKi

INSERT INTO measurements (molecularstring, assayresult) VALUES
  ('CC(=O)OCCS(C)(=O)=O', 2.19);

###

protocolText: Compound was evaluated for reversible inhibition of hydrolysis acetylcholine by acetylcholinesterase and represented as KI(noncompetitive)
pKi: −log10 of the molar value.
# pKi per entry
measuredQuantity: pKi

INSERT INTO results (compound, measuredquantity, assayresult) VALUES
  ('CS(=O)(=O)CCO [2-Methanesulfonyl-ethanol]', 'pKi', 1.00),
  ('CC(C)(C)CCO [3,3-Dimethyl-butan-1-ol]', 'pKi', 1.72),
  ('C[S+](C)C [Trimethyl-sulfonium; iodide]', 'pKi', 2.14),
  ('CS(C)(I)CCO', 'pKi', 1.89),
  ('C[N+](C)(C)CCO [2-hydroxy-N,N,N-trimethylethanaminium]', 'pKi', 2.12);

###

protocolText: Compound was evaluated for reversible inhibition of hydrolysis of acetylcholine by acetylcholinesterase and represented as KI(competitive)
measuredQuantity: Ki (mM)

INSERT INTO results (molecule, measuredquantity, assayresult) VALUES
  ('CC(=O)CCC[N+](C)(C)[O-] [5-dimethylamino-2-pentanone-N-oxide]', 'Ki', 14);
